Below, each of the compounds is paired with its reported IC50 value.
# Test system: human prostate DU145 cells
# MEASUREMENT_NOTES: MTT based cell proliferation assay, DU145
# CONDITION_SET: Homo sapiens, DU-145, 72 h, read-out: Cell Proliferation Inhibition in DU145 (Prostate carcinoma), IC50

COMPOUND	IC50, µM
COc1cc2ncnc(Nc3cc(C(C)(C)C)[se]c3C(N)=O)c2cc1OC [Compound 1]	3.6
CC(C)(C)c1cc(Nc2ncnc3ccc(NC(=O)CCl)cc23)c(C(N)=O)[se]1 [Compound 9]	8.51
COc1cc2ncnc(Nc3cc(C(C)(C)C)[se]c3C(N)=O)c2cc1OCCCN1CCOCC1 [Compound 3]	7.39
COc1cc2ncnc(N(C)c3cc(C(C)(C)C)[se]c3C(N)=O)c2cc1OC [Compound 21]	3.95
COc1cc2nc(C)nc(Nc3cc(C(C)(C)C)[se]c3C(N)=O)c2cc1OCCCN1CCOCC1 [Compound 26]	6.78
COc1cc2c(Nc3cc(C(C)(C)C)[se]c3C(N)=O)ncnc2cc1OCCCN1CCOCC1 [Compound 5]	3.9
COc1cc2nc(CN(C)C)nc(Nc3cc(C(C)(C)C)[se]c3C(N)=O)c2cc1OC [Compound 27]	2.97
COc1cc2ncnc(Nc3cc(-c4ccccc4)[se]c3C(N)=O)c2cc1OCCCN1CCOCC1 [Compound 7]	5.84
COc1cc2c(Nc3cc(C(C)(C)C)[se]c3C(N)=O)ncnc2c(OC)c1OC [Compound 2]	5.98
